- Assay target: Bcl-2 (Homo sapiens)
- Construct: c-myc
- Sequence (P10415 whole entry): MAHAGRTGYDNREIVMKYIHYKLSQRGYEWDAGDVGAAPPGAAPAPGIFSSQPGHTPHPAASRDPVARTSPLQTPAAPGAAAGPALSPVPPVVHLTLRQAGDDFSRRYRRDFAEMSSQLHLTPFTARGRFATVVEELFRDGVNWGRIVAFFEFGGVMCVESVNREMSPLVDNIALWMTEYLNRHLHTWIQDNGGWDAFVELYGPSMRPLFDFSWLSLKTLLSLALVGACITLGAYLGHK
- Procedure summary: Competition fluorescence polarization (anisotropy) with fluoresceinated BIM
- Format: binding
- Experimental context: competition FP source data; replicate 1
Measured quantity: Ki (M) Bcl-2

- Substance: "Ac-QWIREIAAGLRRFADILNAQVER-NH2 [FS3]"
  Unit annotation: "M"
  Ki (M) Bcl-2: "1.85e-06"
- Substance: "Ac-QWVREIAAGLRRAADDVNAQVER-NH2 [FS2]"
  Unit annotation: "M"
  Ki (M) Bcl-2: "2.55e-06"

1. Ac-QWVREIAAQLRRMADDLNAQYER-NH2 [FS2_N/Puma_C]
2. Ac-QWVREIAAGLRLAADNVNAQLER-NH2 [FS1]
Query block: Lab note: check whether 1 or 2 shows the higher recorded Ki (M) Bcl-2. Lab log: write the label of the selected item as the result.
Result block: 2
(2: 8.37e-06 M, 1: 1.99e-06 M)

---

- Assay target: Bfl-1 (Homo sapiens)
- Construct: c-myc
- Sequence (Q16548 1-175): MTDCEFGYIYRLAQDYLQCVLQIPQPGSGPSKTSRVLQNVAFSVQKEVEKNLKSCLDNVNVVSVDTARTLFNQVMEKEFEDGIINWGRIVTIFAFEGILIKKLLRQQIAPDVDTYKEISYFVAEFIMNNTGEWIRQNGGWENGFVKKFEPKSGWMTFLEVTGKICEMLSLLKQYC
- Procedure summary: Competition fluorescence polarization (anisotropy) with fluoresceinated BIM
- Assay type: binding
- Experimental context: competition FP source data; replicate 1
Measured quantity: Ki (M) Bfl-1

- Substance: "Ac-RPVIWIAQGLRRAGDEVNAYVAR-NH2 [BIM-FS2]"
  Ki (M) Bfl-1: "7.75e-07"

P. Ac-QWVREIAAQLRRMADDLNAQYER-NH2 [FS2_N/Puma_C]
Q. Ac-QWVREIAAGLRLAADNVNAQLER-NH2 [FS1]
Query block: Which has the higher Ki (M) Bfl-1, P or Q ? Indicate which entry you chose by stating its label.
Result block: P

---

- Assay target: Bcl-xL (Homo sapiens)
- Construct: c-myc
- Sequence (Q07817 whole entry): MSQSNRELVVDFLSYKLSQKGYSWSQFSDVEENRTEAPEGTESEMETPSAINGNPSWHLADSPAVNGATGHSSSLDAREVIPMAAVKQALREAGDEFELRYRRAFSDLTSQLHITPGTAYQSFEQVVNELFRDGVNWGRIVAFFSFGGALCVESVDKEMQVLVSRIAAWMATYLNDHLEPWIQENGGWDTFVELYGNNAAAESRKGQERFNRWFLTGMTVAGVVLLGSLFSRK
- Procedure summary: Competition fluorescence polarization (anisotropy) with fluoresceinated BIM
- Type: binding
- Experimental context: competition FP source data; replicate 1
Measured quantity: Ki (M) Bcl-xL

- Substance: "Ac-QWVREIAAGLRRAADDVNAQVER-NH2 [FS2]"
  Ki (M) Bcl-xL: "6.54e-06"

P. Ac-QWAREIGAGLRRAADDVNAQVER-NH2 [Puma_N/FS2_C]
Q. Ac-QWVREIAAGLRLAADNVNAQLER-NH2 [FS1]
R. Ac-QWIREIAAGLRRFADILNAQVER-NH2 [FS3]
Query block: I would appreciate it if you could sort these 3 substances by Ki (M) Bcl-xL, starting from the smallest number. # output: labels, in the requested order
Result block: P, R, Q

---

- Assay target: Bcl-xL (Homo sapiens)
- Construct: c-myc
- Procedure summary: Competition fluorescence polarization (anisotropy) with fluoresceinated BIM
- Type: binding
- Experimental context: competition FP source data; replicate 3
Measured quantity: Ki (M) Bcl-xL

- Substance: "Ac-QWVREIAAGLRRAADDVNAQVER-NH2 [FS2]"
  Assay target: "Bcl-xL (Homo sapiens)"
  Ki (M) Bcl-xL: "4.66e-06"

P. Ac-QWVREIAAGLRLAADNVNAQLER-NH2 [FS1]
Q. Ac-QWAREIGAGLRRAADDVNAQVER-NH2 [Puma_N/FS2_C]
R. Ac-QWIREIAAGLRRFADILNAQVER-NH2 [FS3]
Query block: Number of substances to sort: 3. Sort criterion: Ki (M) Bcl-xL, ascending. Please express your ranking as an ordered list of the labels.
Result block: Q, R, P
(Q: 2.24e-09 M, R: 2.72e-07 M, P: 2.27e-06 M)
